tested system: T1, CD3 epsilon homodimer protein (UniProt P07766 23-126)
T1 construct: also called CD3 (CD3 epsilon)
T1 sequence (P07766 23-126): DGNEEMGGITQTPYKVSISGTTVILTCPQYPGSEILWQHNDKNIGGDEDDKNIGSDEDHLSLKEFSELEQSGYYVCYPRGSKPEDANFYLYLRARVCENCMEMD
procedure details: SPR Biacore T200, CD3e homodimer on chip, vs unaltered GLS3000 antibody
Values of ratio of amounts bound (Z=Y/X) greater than or equal to 0.7 map to t; values below map to f.

GLS3000 S56T (antibody, name in Kabat numbering, V domains shown, one-arm IgG as m2) VH: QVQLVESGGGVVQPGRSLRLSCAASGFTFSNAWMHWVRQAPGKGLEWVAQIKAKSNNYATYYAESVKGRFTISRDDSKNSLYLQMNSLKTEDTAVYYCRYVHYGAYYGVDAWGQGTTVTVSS VL: DIVMTQSPLSLPVTPGEPASISCRSSQSLVHSNRNTYLHWYQQKPGQAPRLLIYKVSNRFTGVPDRFSGSGSGTDFTLKISRVEAEDVGVYYCGQGTQVPYTFGQGTKLEIK	t
GLS3000 G89W (antibody, name in Kabat numbering, V domains shown, one-arm IgG as m2) VH: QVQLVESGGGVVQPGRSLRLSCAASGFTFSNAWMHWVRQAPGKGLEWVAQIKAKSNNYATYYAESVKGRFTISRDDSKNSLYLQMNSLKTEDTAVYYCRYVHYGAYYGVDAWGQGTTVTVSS VL: DIVMTQSPLSLPVTPGEPASISCRSSQSLVHSNRNTYLHWYQQKPGQAPRLLIYKVSNRFSGVPDRFSGSGSGTDFTLKISRVEAEDVGVYYCWQGTQVPYTFGQGTKLEIK	f
GLS3000 G91D (antibody, name in Kabat numbering, V domains shown, one-arm IgG as m2) VH: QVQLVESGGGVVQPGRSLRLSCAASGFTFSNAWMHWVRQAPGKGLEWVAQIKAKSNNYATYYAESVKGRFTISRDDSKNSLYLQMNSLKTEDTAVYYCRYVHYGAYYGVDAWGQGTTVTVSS VL: DIVMTQSPLSLPVTPGEPASISCRSSQSLVHSNRNTYLHWYQQKPGQAPRLLIYKVSNRFSGVPDRFSGSGSGTDFTLKISRVEAEDVGVYYCGQDTQVPYTFGQGTKLEIK	f
GLS3000 S27eH (antibody, name in Kabat numbering, V domains shown, one-arm IgG as m2) VH: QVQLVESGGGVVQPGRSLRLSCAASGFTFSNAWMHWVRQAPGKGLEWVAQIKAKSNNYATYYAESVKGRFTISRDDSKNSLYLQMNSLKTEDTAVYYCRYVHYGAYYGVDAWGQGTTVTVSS VL: DIVMTQSPLSLPVTPGEPASISCRSSQSLVHHNRNTYLHWYQQKPGQAPRLLIYKVSNRFSGVPDRFSGSGSGTDFTLKISRVEAEDVGVYYCGQGTQVPYTFGQGTKLEIK	t
